Data credit: patent US11639350B2

- Test system: HBV
- protocol notes: HBV inhibitory activity: HBV DNA in the culture medium of HepG2.2.15 cells by q-PCR
- Assay type: cell-based
- condition set: Hepatitis B virus, HepG2.2.15, 144 h
- Protocol: HBV replication inhibition by the compounds of this invention as well as cytotoxicity determination was determined in cells infected or transfected with HBV, or cells with stably integrated HBV, such as HepG2.2.15 cells (Sells et al. 1987). The method used herein is as follows. […] The HBV DAN change in the cell culture medium induced by the compounds was measured by q-PCR (quantitative polymerase chain reaction) method. […]
readout name: EC50 (nM)

INSERT INTO measurements (molecule, subject_of_test, readout_name, recorded_number) VALUES
  ('COC(=O)C1=C(C2CCN(S(=O)(=O)CCOCCOCCO)CC2)NC(c2nccs2)=NC1c1ccc(F)cc1Cl (stereo not drawn) [Compound 468]', 'HBV', 'EC50', 9),
  ('COC(=O)C1=C(C2CCN(S(=O)(=O)CCOCCO)CC2)NC(c2nccs2)=NC1c1ccc(F)cc1Cl (stereo not drawn) [Compound 484]', 'HBV', 'EC50', 5),
  ('COC(=O)C1=C(C2CCN(S(=O)(=O)c3cnn(C[C@@H](C)O)c3)CC2)NC(c2nccs2)=NC1c1ccc(F)cc1Cl (stereo partly drawn) [Compound 360C]', 'HBV', 'EC50', 17);

###

- protocol notes: Cytotoxicity determination in HepG2.2.15 cells (CCK-8)
- Assay type: cell-based
- condition set: human, 6 days of compound treatment, CCK-8, highest concentration 100 μM
readout name: CC50 at 6 days (µM)

INSERT INTO assay_data (molecule, readout_name, recorded_number) VALUES
  ('CNS(=O)(=O)[C@H]1CC[C@H](C2=C(C(=O)OC)C(c3cccc(F)c3Cl)N=C(c3nccs3)N2)CC1 (single isomer, unassigned) [Compound 259E]', 'CC50 at 6 days', 22.7),
  ('COC(=O)C1=C(C2(F)CCN(S(C)(=O)=O)CC2)NC(c2nccs2)=NC1c1cccc(F)c1Cl (stereo not drawn)', 'CC50 at 6 days', 20.7),
  ('COC(=O)C1=C(C2CCN(S(=O)(=O)c3cnn([C@H]4C[C@H](C(=O)O)C4)c3)CC2)NC(c2nccs2)=NC1c1ccc(F)cc1Cl (stereo partly drawn)', 'CC50 at 6 days', 20.1),
  ('CCOC(=O)C1=C([C@H]2CC[C@H](C(N)=O)CC2)NC(c2nccs2)=NC1c1ccc(F)cc1Cl (stereo partly drawn)', 'CC50 at 6 days', 23.9),
  ('COC(=O)C1=C([C@H]2CC[C@@H](NS(C)(=O)=O)CC2)NC(c2ncc(F)cc2F)=NC1c1ccc(F)cc1Cl (mixture of isomers)', 'CC50 at 6 days', 36.8),
  ('COCCNS(=O)(=O)[C@H]1CC[C@H](C2=C(C(=O)OC)C(c3ccc(F)c(F)c3Cl)N=C(c3nccs3)N2)CC1 (single isomer, unassigned) [Compound 359D]', 'CC50 at 6 days', 12);

###

- System: HepG2.2.15 cells
- protocol notes: Cytotoxicity determination in HepG2.2.15 cells (CCK-8)
- Type: cell-based
- condition set: 6 days of compound treatment, CCK-8, highest concentration 100 μM
- Experimental: HBV replication inhibition by the compounds of this invention as well as cytotoxicity determination was determined in cells infected or transfected with HBV, or cells with stably integrated HBV, such as HepG2.2.15 cells (Sells et al. 1987). The method used herein is as follows. […] EC50 and CC50 values are calculated by the GraphPad Prism software and are averages where multiple measurements were made. […]
Reported log10(CC50) by item:
readout name: log10(CC50) (log10 of the value in µM)

INSERT INTO assay_data (compound, subject_of_test, recorded_number) VALUES
  ('COC(=O)C1=C(C2CCN(S(=O)(=O)C3CC(C)(C(=O)OC)C3)CC2)NC(c2nccs2)=NC1c1ccc(F)c(F)c1Cl (single isomer, unassigned) [Compound 323D]', 'HepG2.2.15 cells', 1.46),
  ('CCOC(=O)C1=C([C@@H]2C[C@H]2CC(=O)O)NC(c2nccs2)=NC1c1ccc(F)cc1Cl (single isomer, unassigned) [Compound 93]', 'HepG2.2.15 cells', 1.97),
  ('COC(=O)C1=C(C2CCN(S(=O)(=O)CC3(C)CCC(C(=O)O)CC3)CC2)NC(c2nccs2)=NC1c1ccc(F)c(F)c1Cl (single isomer, unassigned) [Compound 452A]', 'HepG2.2.15 cells', 0.99),
  ('COC(=O)C1=C(C2CCCOC2)NC(c2nccs2)=NC1c1ccc(F)cc1Cl (single isomer, unassigned) [Compound 48A]', 'HepG2.2.15 cells', 1.67),
  ('COC(=O)C1=C(C2CCN(S(C)(=O)=O)C2)NC(c2nccs2)=NC1c1ccc(F)cc1Cl (single isomer, unassigned) [Compound 65A]', 'HepG2.2.15 cells', 1.84),
  ('COC(=O)C1=C(C2CCC(NC(C)=O)C2)NC(c2nccs2)=NC1c1cccc(F)c1Cl (single isomer, unassigned) [Compound 62B]', 'HepG2.2.15 cells', 1.36),
  ('CCOC(=O)C1=C(C2CCN(S(=O)(=O)[C@H]3C[C@@](C)(C(=O)O)C3)CC2)NC(c2nccs2)=NC1c1ccc(F)cc1Cl (stereo partly drawn) [Compound 272B]', 'HepG2.2.15 cells', 1.30),
  ('COC(=O)C1=C(C2CCNC(=O)C2)NC(c2nccs2)=NC1c1ccc(F)cc1Cl (single isomer, unassigned) [Compound 3A]', 'HepG2.2.15 cells', 1.56),
  ('COC(=O)C1=C(C2COC(CO)C2)NC(c2nccs2)=NC1c1cccc(F)c1Cl (single isomer, unassigned) [Compound 219H]', 'HepG2.2.15 cells', 0.18),
  ('COC(=O)C1=C(C2CCN(S(=O)(=O)C3CC(C)(C(=O)O)C3)CC2)NC(c2nccs2)=NC1c1ccc(F)cc1C (stereo not drawn) [Compound 447C]', 'HepG2.2.15 cells', 1.68),
  ('COC(=O)C1=C(C2CCC(NC(C)=O)C2)NC(c2nccs2)=NC1c1ccc(F)c(F)c1Cl (single isomer, unassigned) [Compound 300B]', 'HepG2.2.15 cells', 1.46),
  ('CCOC(=O)C1=C([C@H]2CCC[C@H](C(=O)O)CC2)NC(c2nccs2)=NC1c1ccc(F)c(F)c1Cl (single isomer, unassigned) [Compound 302F]', 'HepG2.2.15 cells', 1.01);

###

Measured CC50 at 6 days, listed per entry for reference.
- protocol notes: Cytotoxicity determination in HepG2.2.15 cells (CCK-8)
- Format: cell-based
- condition set: human, 6 days of compound treatment, CCK-8, highest concentration 100 μM
readout name: CC50 at 6 days (µM)

INSERT INTO results (compound, readout_name, recorded_number) VALUES
  ('COC(=O)C1=C([C@H]2CC[C@H](C(=O)OC)CC2)NC(c2nc(C)cs2)=NC1c1ccc(F)cc1Br (single isomer, unassigned) [Compound 239X]', 'CC50 at 6 days', 14.8),
  ('CNS(=O)(=O)[C@H]1CC[C@H](C2=C(C(=O)OC)C(c3ccc(F)c(F)c3Cl)N=C(c3ncc(F)cc3F)N2)CC1 (single isomer, unassigned) [Compound 168A]', 'CC50 at 6 days', 12.5),
  ('COC(=O)C1=C(C2CCN(C(C)=O)CC2)NC(c2nccs2)=NC1c1ccc(F)cc1Cl (stereo not drawn) [Compound 2]', 'CC50 at 6 days', 98.4);

###

- protocol notes: Cytotoxicity determination in HepG2.2.15 cells (CCK-8)
- Format: cell-based
- condition set: human, 6 days of compound treatment, CCK-8, highest concentration 100 μM
- Experimental: HBV replication inhibition by the compounds of this invention as well as cytotoxicity determination was determined in cells infected or transfected with HBV, or cells with stably integrated HBV, such as HepG2.2.15 cells (Sells et al. 1987). The method used herein is as follows. […] EC50 and CC50 values are calculated by the GraphPad Prism software and are averages where multiple measurements were made. […]
readout name: CC50 at 6 days (µM)

INSERT INTO assay_data (compound, unit_spec, operator_symbol, recorded_number) VALUES
  ('COC(=O)C1=C(C2C3CCC2CN(S(C)(=O)=O)C3)NC(c2nccs2)=NC1c1cccc(F)c1Cl (single isomer, unassigned) [Compound 37B]', 'µM', '=', 5.9),
  ('COC(=O)C1=C(C2CN(S(=O)(=O)c3ccccc3)C2)NC(c2nccs2)=NC1c1ccc(F)cc1Cl (stereo not drawn) [Compound 130]', 'µM', '>', 10),
  ('COC(=O)C1=C([C@H]2CC[C@H](S(=O)(=O)NCCO)CC2)NC(c2nccs2)=NC1c1ccc(F)c(F)c1Cl (single isomer, unassigned) [Compound 291C]', 'µM', '=', 12),
  ('COC(=O)C1=C([C@H]2CC[C@H](O)CC2)NC(c2nccs2)=NC1c1cccc(F)c1Cl (single isomer, unassigned) [Compound 381A]', 'µM', '=', 28.5),
  ('COC(=O)C1=C(C2CCN(S(=O)(=O)[C@H]3CC[C@H](CC(=O)O)CC3)CC2)NC(c2nccs2)=NC1c1ccc(F)c(F)c1Cl (relative stereo) [Compound 478A]', 'µM', '=', 9.9),
  ('CCOC(=O)C1=C(C2CCN(S(=O)(=O)C[C@H]3CC[C@H](C(=O)O)CC3)CC2)NC(c2nccs2)=NC1c1ccc(F)c(F)c1Cl (stereo partly drawn) [Compound 424]', 'µM', '=', 8.2);
